- Tested on: SK-OV-3 ovarian
- EXPERIMENTAL DETAILS: NCI tumour cell line growth inhibition, 384-well format

{"TEST SMILES": "c1cn2cc(-c3ccc4cn[nH]c4c3)nc(Nc3ccc(N4CCOCC4)cc3)c2n1", "STUDY TARGET": "SK-OV-3 ovarian", "VALUE PREFIX": "=", "TGI / µM": 19.3}
{"TEST SMILES": "C=CC(=O)N[C@H]1CCOC[C@H]1Nc1ncc2cc(-c3c(Cl)c(OC)cc(OC)c3Cl)ccc2n1", "STUDY TARGET": "SK-OV-3 ovarian", "VALUE PREFIX": "=", "TGI / µM": 63.4}
{"TEST SMILES": "Cn1cc(-c2cnc3ccc4ccc(CS(=O)(=O)NCc5ccccn5)cc4c(=O)c3c2)cn1", "STUDY TARGET": "SK-OV-3 ovarian", "VALUE PREFIX": "=", "TGI / µM": 31.3}
{"TEST SMILES": "Cc1cc(Nc2ncnc3ccc(NC4=NC(C)(C)CO4)cc23)ccc1Oc1ccn2ncnc2c1", "STUDY TARGET": "SK-OV-3 ovarian", "VALUE PREFIX": ">", "TGI / µM": 46}

====

Overview of reported GI50 across a group of compounds:
- Tested on: ACHN renal
- EXPERIMENTAL DETAILS: NCI tumour cell line growth inhibition, 384-well format
MEASURE NAME: GI50

{"TEST SMILES": "CC(=O)O/N=C1/C(c2c(O)[nH]c3cc(Br)ccc23)=Nc2ccccc21", "RESULT": "0.472 µM"}
{"TEST SMILES": "O=C(Cc1cccc(OC(F)(F)F)c1)Nc1ccc(CCCCc2nnc(NC(=O)Cc3ccccn3)s2)nn1", "RESULT": "2.52 µM"}
{"TEST SMILES": "Cc1cc(Nc2ncnc3ccc(NC4=NC(C)(C)CO4)cc23)ccc1Oc1ccn2ncnc2c1", "RESULT": "12.6 µM"}
{"TEST SMILES": "C=CC(=O)N[C@H]1CCOC[C@H]1Nc1ncc2cc(-c3c(Cl)c(OC)cc(OC)c3Cl)ccc2n1", "RESULT": "30.6 µM"}

====

- Tested on: UACC-62 melanoma
- EXPERIMENTAL DETAILS: NCI tumour cell line growth inhibition, 384-well format
Overview of reported GI50 across a group of compounds:

{"TEST SMILES": "CC(=O)O/N=C1/C(c2c(O)[nH]c3cc(Br)ccc23)=Nc2ccccc21", "GI50": "0.636 µM"}
{"TEST SMILES": "C=CC(=O)N[C@H]1CCOC[C@H]1Nc1ncc2cc(-c3c(Cl)c(OC)cc(OC)c3Cl)ccc2n1", "GI50": "10.7 µM"}
{"TEST SMILES": "O=C(Cc1cccc(OC(F)(F)F)c1)Nc1ccc(CCCCc2nnc(NC(=O)Cc3ccccn3)s2)nn1", "GI50": "4.76 µM"}
{"TEST SMILES": "Cn1cc(-c2cnc3ccc4ccc(CS(=O)(=O)NCc5ccccn5)cc4c(=O)c3c2)cn1", "GI50": "12 µM"}

====

- Test system: HL-60(TB) leukemia
- EXPERIMENTAL DETAILS: NCI tumour cell line growth inhibition, 384-well format
Overview of reported GI50 across a group of molecules:
MEASURE NAME: GI50

{"TEST SMILES": "O=C(Cc1cccc(OC(F)(F)F)c1)Nc1ccc(CCCCc2nnc(NC(=O)Cc3ccccn3)s2)nn1", "MEASURE NAME": "GI50", "RESULT": "0.687 µM"}
{"TEST SMILES": "Cn1cc(-c2cnc3ccc4ccc(CS(=O)(=O)NCc5ccccn5)cc4c(=O)c3c2)cn1", "MEASURE NAME": "GI50", "RESULT": "13.2 µM"}
{"TEST SMILES": "c1cn2cc(-c3ccc4cn[nH]c4c3)nc(Nc3ccc(N4CCOCC4)cc3)c2n1", "MEASURE NAME": "GI50", "RESULT": "> 100 µM"}
{"TEST SMILES": "Cc1cc(Nc2ncnc3ccc(NC4=NC(C)(C)CO4)cc23)ccc1Oc1ccn2ncnc2c1", "MEASURE NAME": "GI50", "RESULT": "5.59 µM"}

All figures here come from PubChem BioAssay (NCI).
